Numbers sourced from ChEMBL document CHEMBL4251678.

Listed next: entries and their corresponding IC50.
Tested on: MCF7
Experimental protocol: Cytotoxicity against human MCF7 cells assessed as reduction in cell viability after 48 hrs by MTT assay
Format: functional, cell-based
Condition: MCF7, 48 h

# Chemical smiles, System, IC50
records = [
    ("COc1cc2c(c(O)c1Cl)C(=O)c1c(O)cc(C[C@H](C)O)cc1[C@H]2[C@@H]1c2cc(C[C@H](C)O)cc(O)c2C(=O)c2c1cc(OC)c(Cl)c2O", "MCF7", "> 20 µM"),
    ("COc1cc2c(c(O)c1Cl)C(=O)c1c(O)cc(C[C@H](C)O)cc1[C@@H]2[C@H]1c2cc(C[C@H](C)O)cc(O)c2C(=O)c2c1cc(OC)c(Cl)c2O", "MCF7", "> 20 µM"),
]

Now let's try a different one.
Problem: Look up IC50: COc1cc2c(c(O)c1Cl)C(=O)c1c(O)cc(C[C@H](C)O)cc1[C@H]2[C@H]1c2cc(C[C@H](C)O)cc(O)c2C(=O)c2c1cc(OC)c(Cl)c2O
Solution: > 20 µM
